# study_target: Cytochrome P450 2D6 (Homo sapiens) (UniProt P10635)
# Sequence (P10635 whole entry, looked up): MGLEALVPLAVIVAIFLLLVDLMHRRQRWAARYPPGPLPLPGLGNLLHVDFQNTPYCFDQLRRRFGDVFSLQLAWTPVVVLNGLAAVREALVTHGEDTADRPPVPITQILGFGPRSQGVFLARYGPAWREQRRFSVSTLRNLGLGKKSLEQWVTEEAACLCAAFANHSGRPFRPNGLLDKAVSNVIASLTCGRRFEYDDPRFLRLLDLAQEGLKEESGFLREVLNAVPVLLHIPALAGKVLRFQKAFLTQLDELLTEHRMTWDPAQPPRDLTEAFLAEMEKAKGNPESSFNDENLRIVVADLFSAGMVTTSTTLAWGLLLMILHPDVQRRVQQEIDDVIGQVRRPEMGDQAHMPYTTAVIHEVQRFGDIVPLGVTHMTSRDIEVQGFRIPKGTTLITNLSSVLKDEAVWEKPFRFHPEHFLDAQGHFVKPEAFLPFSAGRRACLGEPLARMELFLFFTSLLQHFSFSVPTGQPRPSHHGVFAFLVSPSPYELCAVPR
# experiment_description: Cytochrome panel assay with activity outcomes
# test_parameters: recombinant CYP, pro-luciferin dealkylation, luminescence, p450-cyp2d6; series mostly up to 57.1 µM
The whole screen tested about 16,000 compounds, of which about 2,600 (16%) were called active. Inconclusive results (about 20%) are left out. Not all results are given here.

- molecular_string: "COc1ccc(C(=O)N/N=C/c2cccc3cccnc23)cc1"
  outcome: "inactive"
- molecular_string: "CCOC(=O)c1cnn(-c2nc(-c3cccc(F)c3)cs2)c1C(F)(F)F"
  outcome: "inactive"
- molecular_string: "CC(C)OCCCN1CN(S(=O)(=O)c2cccc(Cl)c2)c2nc3ccccc3nc21"
  outcome: "inactive"
- molecular_string: "CC(C)N=C(Nc1ccc(Cl)cc1)c1cccnc1"
  outcome: "inactive"
- molecular_string: "O=C(c1ccc(Br)cc1)c1cc([N+](=O)[O-])ccc1N1CCCCC1"
  outcome: "inactive"
- molecular_string: "COC(=O)c1cc2c(ccn2-c2ccc(F)cc2)n1CC(C)C"
  outcome: "inactive"
- molecular_string: "N#Cc1sc2nc(-c3cccs3)cc(-c3ccc(Cl)cc3)c2c1N"
  outcome: "inactive"
- molecular_string: "CCCn1c(=O)c2[nH]c(C3CCCC3)nc2n(CCC)c1=O"
  outcome: "inactive"
- molecular_string: "O=c1nc(-c2ccccc2)cn[nH]1"
  outcome: "inactive"
- molecular_string: "COCCNC(=O)c1onc(CSc2ccccc2F)c1C(=O)O"
  outcome: "inactive"
- molecular_string: "S=c1[nH]c2cc(Cl)ccc2s1"
  outcome: "inactive"
- molecular_string: "C#C[C@]1(O)CC[C@@H]2[C@H]3CCC4=CCCC[C@@H]4[C@@H]3CC[C@@]21C"
  outcome: "inactive"

###

# study_target: Cytochrome P450 2D6 (Homo sapiens) (UniProt P10635)
# experiment_description: Cytochrome panel assay with activity outcomes
# test_parameters: recombinant CYP, pro-luciferin dealkylation, luminescence, p450-cyp2d6; series mostly up to 57.1 µM
Hit rate of the full screen: of about 16,000 compounds, about 2,600 (16%) were called active. About 20% were inconclusive and are not listed. Calls come from the whole dose curve; as a rule, active = well fitted curve in the direction sought with a large enough effect; inconclusive = small, poorly fitted or top-dose-only effect, or effect the other way; inactive = no such curve, though single readings can be large or run the other way. Not all results are given here.
Possible outcomes: active, inactive

- molecule: "CSc1nc(-c2ccc(C)cc2)[nH]c1S(=O)(=O)c1ccccc1"
  assigned_category: "inactive"
- molecule: "O=C(CSc1nncn1-c1ccccc1)Nc1ccc(N2CCOCC2)cc1"
  assigned_category: "inactive"
- molecule: "CCCCN(C)C(=O)c1coc(=O)c2ccccc12"
  assigned_category: "inactive"
- molecule: "CN(C)c1ncc2nc(-c3ccc(Cl)cc3)c(=O)n(Cc3ccc(F)cc3)c2n1"
  assigned_category: "inactive"
- molecule: "CC(C)COP(=O)(c1ccc(N(C)C)cc1)C(O)c1ccccc1F (stereo unspecified)"
  assigned_category: "inactive"
- molecule: "COc1cccc(Nc2ncc3nc(-c4cccs4)c(=O)n(-c4ccccc4)c3n2)c1"
  assigned_category: "inactive"
- molecule: "c1ccc(CN2CCC3(CCCc4ccccc43)CC2)cc1"
  assigned_category: "active"
- molecule: "Cc1ccc(-n2cc(C(=O)c3ccc4ccccc4c3O)cn2)cc1"
  assigned_category: "inactive"
- molecule: "Cc1ccc(C)c(NC(=O)Cn2nnc(C(=O)NCc3cccs3)c2N)c1"
  assigned_category: "inactive"
- molecule: "CC(NC(=O)c1ccc(Cn2cc([N+](=O)[O-])cn2)o1)c1ccccc1 (stereo unspecified)"
  assigned_category: "inactive"
- molecule: "Cc1ccc2nc(SCc3nnc(-c4ccccc4[N+](=O)[O-])o3)c(C#N)cc2c1"
  assigned_category: "inactive"
- molecule: "Cc1ccc2c(c1)N(CC(=O)NCc1cccs1)C(=O)C(C)O2 (stereo unspecified)"
  assigned_category: "active"
- molecule: "COc1ccc(-c2cc(C(=O)Nc3cc(OC)c(OC)c(OC)c3)no2)cc1OC"
  assigned_category: "inactive"
- molecule: "COc1ccc(NC(=O)c2ccc(-c3ccc(-c4noc(C)n4)cc3C)cc2)cc1OCCN(C)C"
  assigned_category: "active"
- molecule: "O=C(Nc1cccc(F)c1)N1CCCC2(CCN(C(=O)c3cnccn3)CC2)C1"
  assigned_category: "inactive"
- molecule: "N#Cc1c[nH]n2c(=O)c3c(nc12)CCCC3"
  assigned_category: "inactive"
- molecule: "CCCCOc1ccc(-c2nnn(CC(=O)c3c[nH]c4ccccc34)n2)cc1"
  assigned_category: "inactive"
- molecule: "Cc1c(Br)c([N+](=O)[O-])nn1C(C)C(=O)Nc1nccs1 (stereo unspecified)"
  assigned_category: "inactive"
- molecule: "COC(=O)[C@@]1(Cc2ccc(OC)cc2)[C@H]2c3cc(C(=O)N4CCCC4)n(CCCNc4ncc(C(F)(F)F)cc4Cl)c3C[C@H]2CN1C(=O)c1ccccc1"
  assigned_category: "inactive"
- molecule: "COc1ccc(CCNC(=O)CCN2C(=O)C(C)Oc3ccc(C)cc32)cc1OC (stereo unspecified)"
  assigned_category: "inactive"
- molecule: "CC(C)c1nnc(NC(=O)c2sc3ccccc3c2Cl)s1"
  assigned_category: "inactive"

###

# study_target: Cytochrome P450 2D6 (Homo sapiens) (UniProt P10635)
# experiment_description: Cytochrome panel assay with activity outcomes; for activity, negative = inhibition: % is set by controls: 0 for no effect and ±100 for the full control effect
# test_parameters: recombinant CYP, pro-luciferin dealkylation, luminescence, p450-cyp2d6; series mostly up to 57.1 µM
About 2,600 (16%) of roughly 16,000 compounds were called active. Another 20% or so got no clear call; they are omitted. A selection follows.

- molecular_string: "Cc1ccc(S(=O)(=O)N[C@@H]2COC(=O)C/C=C\\[C@H](C)COC(=O)N[C@@H](C)C(=O)C/C=C\\[C@H]2C)cc1"
  activity, negative = inhibition: "2.75% [at 11.4 µM] (inactive)"
- molecular_string: "CC1=NN(c2ccccc2)C(=O)[C@@H]1N=Nc1ccc(S(N)(=O)=O)cc1"
  activity, negative = inhibition: "8.14% [at 11.4 µM] (inactive)"
- molecular_string: "O=C(O)c1ccccc1N[C@H](c1ccccc1)c1ccc2cccnc2c1O"
  activity, negative = inhibition: "-6.89% [at 11.4 µM] (inactive)"
- molecular_string: "CCOC(=O)N/N=C1/C[C@@H](O)[C@@H](O)[C@@H]2[C@@H]3C(=O)N(Cc4ccccc4)C(=O)[C@H]3CC[C@H]12"
  activity, negative = inhibition: "9.96% [at 11.4 µM] (inactive)"
- molecular_string: "N[C@@H](Cc1ccccc1)C(=O)O"
  activity, negative = inhibition: "4.66% [at 11.4 µM] (inactive)"

###

# study_target: Cytochrome P450 2D6 (Homo sapiens)
# experiment_description: Cytochrome panel assay with activity outcomes
# test_parameters: recombinant CYP, pro-luciferin dealkylation, luminescence, p450-cyp2d6; series mostly up to 57.1 µM
Screen size: about 16,000 compounds; about 2,600 (16%) were called active. Inconclusive results (about 20%) are left out. A selection follows.

- molecular_string: "c1ccc(-c2nc3ccccn3c2NCc2ccc3c(c2)OCO3)cc1"
  AC50: "3.98 µM (active)"
- molecular_string: "Nc1ncnc2c1nc(Sc1ccc(Cl)cc1)n2[C@@H]1O[C@H]2COP(=O)(O)O[C@@H]2[C@H]1O"
  AC50: "inactive"
- molecular_string: "COc1cccc(CNCc2ccc(SC)cc2)c1OC"
  AC50: "3.16 µM (active)"
- molecular_string: "O=C(N/N=C\\c1cn(-c2ccccc2)nc1-c1ccccc1)c1ccc2c(c1)OCO2"
  AC50: "inactive"
- molecular_string: "CCOc1ccc(C(=O)Nc2cccc(-c3cc4ccccc4oc3=O)c2)cc1[N+](=O)[O-]"
  AC50: "inactive"
- molecular_string: "COCCNc1ncnc2ccc(-c3cccc(NS(C)(=O)=O)c3)cc12"
  AC50: "inactive"
- molecular_string: "CC(C)c1cccc2cc3c(nc12)-c1cccc(=O)n1C3"
  AC50: "inactive"
- molecular_string: "N=C(N)SCc1cccc2c(=O)cc(-c3ccccc3)oc12"
  AC50: "2.51 µM (active)"
- molecular_string: "O=C(Nc1cccc(C(F)(F)F)c1)c1n[nH]c(Cn2cncn2)n1"
  AC50: "inactive"
- molecular_string: "c1csc(CNc2ncnc3ccc(-c4ccoc4)cc23)c1"
  AC50: "15.8 µM (active)"
- molecular_string: "Cc1[nH]nc(Nc2ccccc2)c1[N+](=O)[O-]"
  AC50: "10 µM (active)"

###

Readings of activity, negative = inhibition for the listed compounds
# study_target: Cytochrome P450 2D6 (Homo sapiens) (UniProt P10635)
# experiment_description: Cytochrome panel assay with activity outcomes; for activity, negative = inhibition: % is set by controls: 0 for no effect and ±100 for the full control effect
# test_parameters: recombinant CYP, pro-luciferin dealkylation, luminescence, p450-cyp2d6; series mostly up to 57.1 µM
About 2,600 (16%) of roughly 16,000 compounds were called active. About 20% were inconclusive and are not listed. Not all results are given here.
measured_metric: activity, negative = inhibition

- molecular_string: "Cc1ccc(N=Nc2c(O)ccc3cc(S(=O)(=O)O)ccc23)cc1"
  measured_metric: "activity, negative = inhibition"
  val: "4.81% [at 11.4 µM] (inactive)"
- molecular_string: "O=C(O)c1ccc(C(=O)c2ccccc2C(=O)O)cc1C(=O)O"
  measured_metric: "activity, negative = inhibition"
  val: "8.1% [at 11.4 µM] (inactive)"
- molecular_string: "COC(=O)[C@H](CCSC)NC(=O)C/C=C\\[C@@H](C)[C@@H](CO)OC"
  measured_metric: "activity, negative = inhibition"
  val: "8.79% [at 11.4 µM] (inactive)"
- molecular_string: "O=c1[nH]c(=S)c2[nH]c(=O)n(-c3ccccc3)c2[nH]1"
  measured_metric: "activity, negative = inhibition"
  val: "7.71% [at 11.4 µM] (inactive)"
- molecular_string: "CC1=N[C@@](C)(COC(=O)[C@]2(C)N[C@](C)(CO)CO2)COC1=O"
  measured_metric: "activity, negative = inhibition"
  val: "10% [at 11.4 µM] (inactive)"
- molecular_string: "Nc1nc(N)[n+]([O-])c(N)c1NCO"
  measured_metric: "activity, negative = inhibition"
  val: "-8.44% [at 11.4 µM] (inactive)"
